Test: yeast display, Sf9 membrane polyspecificity reagent, FACS + sequencing; frameworks hold sequencing errors
readout_label: polyreactivity (PSR sort gate)

1) QVQLVESGGGLVQAGGSLRLSCAASGSIFNSYAMGWYRQAPGKERELVAAISSGGGRTYYADSVKGRFTISRDNAKNTVYLQMNSLKPEDTAVYYCNARAVYRFDYWGQGTQVTVSS; high polyreactivity
2) QVQLVESGGGLVQAGGSLRLSCAASGSIFGRNAMGSSRQAPGKERELVAAITWSGDSTYYADSVKGRFTISRDNAKNTVYLLMNSLKPEDTAVYYCAAGTATDVASIGATKDYDYWGQGTQVTVSS; low polyreactivity
3) QVQLVESGGGLVQAGGSLRLSCAASGRIFGYYAMGWYRQAPGKERELVAAISTRGTSTYYADSVKGRFTISRDNAKNTVYLQMNSLKPEDTAVYYCARGFPPYRGTHMNYWGQGTQVTVSS; high polyreactivity
4) QVKLVESGGGLVQAGGSLRLSCAASGSTFYAYVMGWYRQAPGKARELVAAISKGGGSTYYADSVKGRFTISRDNAKNTVYLQMNSLKPEDTAVYYSAAYASYSNYRKYNYWGQGTQVTVSS; high polyreactivity
5) QVQLVESGGGLVQAGGSLRLSCAASGNIFVVNAMGWYRQAPGIERELVAAITVSGGSTYYADSVKGRFTISRDNAKNTVYLQMNRLKPEDTAVYYCNAYYWHDNWDIELGKFDYWGQGTQVTVSS; low polyreactivity
6) QVQLVESVGGLVQAGGSLRLSCAASGSIFSRNAMGWYRQAPGKERELVAAIRSTVSTYYADSVKGRFTISRDNAKNTVYLQMNSLKPEDTAVYYCATVTHVSPNKYYYWGQGTQVTVSS; high polyreactivity

Fill in the blank: the reported polyreactivity (PSR sort gate) of QVKLVESVGGLVQAGGSLRLTCAASGIIFPVYAMGRYRQAPGKERQLVSAITYSGDRTYYADSVKGRFTISSDNAKNTVYLQMHSLKPEDTAVYYCNARFGVWPYFYNEDDYWGQGTQVTVSS is ____. low polyreactivity

Fill in the blank: the reported polyreactivity (PSR sort gate) of QVQLVESGGGLVQAGGSLRLSCAASGRIFRSNAMGWYRQAPWKERELVATITSSGGRTYYADSVKGRFTISRDNAKNTVYLQMNSLKPEDTAVYYCIAQQRTRGQKAQWVRDEYWGQGTQVTVSS is ____. low polyreactivity

Fill in the blank: the reported polyreactivity (PSR sort gate) of QVQLVESGGGLVQAGGSLRLSCAASGRTFWFYDMGWYRQAPGKEREFVASITSSGGSTYYADSVKGRFTISRDIAKNTVYLQMNSLNPEDTAVYYCAASFYWTTRYSREYDYWGQGTQVTVSS is ____. high polyreactivity

Fill in the blank: the reported polyreactivity (PSR sort gate) of QVQLQESGGGLVQAGGSLRLSCAASGTISDRAGMGWYRQAPAKNAIVATIDRGTNTNYADSVKGRFTISRVNAKNTVYLQMNSLKPEDTAVYNCAADGRYYIYLDYWGQGTQVTVSS is ____. low polyreactivity

Fill in the blank: the reported polyreactivity (PSR sort gate) of QVQLVESGGGLVQAGGSLRLSCAASGRIFSRYAMGWYRQAHGKERELVAAISWSGGSTYYADSVKGRFTISRDNAKNTVYLQMNSLKPEDTAVYYCAARRSYSYGSWGQGTQVTVSS is ____. high polyreactivity
